tested on: MALME-3M melanoma; assay: NCI-60 one-dose screen, 48 h (100 = growth as untreated, 0 = no growth, -100 = all killed); conditions: 10 µM unless noted
This is part of a sample that, as a whole, favours compounds with a hit. Of some 83,000 tested, about 20% had one in any assay.
# key: entry, value: growth
Numeric answer only, unit % assumed.

For orientation, consider the following solved cases.
>  <molecule>
CC(C)CN(C(=O)c1ccc(Cl)cc1)c1c(N)n(CC(C)C)c(=O)[nH]c1=O

>  <measured value>
102

$$$$
>  <molecule>
CC(N)C(=O)NNc1n[nH]c(=S)n1N (centres undefined)

>  <measured value>
94

$$$$
>  <molecule>
O=C(N/N=C/c1ccc(O)c(O)c1)c1sc2ccccc2c1Cl

>  <measured value>
96.8

$$$$
>  <molecule>
O=C(N=Nc1c(O)[nH]c2ccc(F)cc12)c1cc2ccccc2[nH]1

>  <measured value>
99.8

$$$$
>  <molecule>
O=C(CN1CCOCC1)Nc1ccc2ncnc(Nc3ccc(Oc4cccc(C(F)(F)F)c4)c(Cl)c3)c2c1

>  <measured value>
73.4

$$$$
>  <molecule>
COc1cc2nc(Cc3ccc(C)cc3)[nH]c(=O)c2cc1OC

>  <measured value>
277

$$$$
>  <molecule>
COc1ccc(C2CC(c3cccc(Nc4ccncc4)c3)=NN2c2ccc(Cl)cc2)cc1 (centres undefined)

>  <measured value>
-49.9

$$$$
>  <molecule>
O=C(NNc1nc(Cl)nc(N2CCN(C(c3ccccc3)c3ccccc3)CC2)n1)c1ccccc1

>  <measured value>
-14.4

$$$$

Query: Name the recorded growth for `O=C(O)c1cn(C2CC2)c2cc(N3CCN(C(=O)C[n+]4cccc5ccccc54)CC3)c(F)cc2c1=O` .
Result: -41.7

Query: Name the recorded growth for `COc1ccc(-c2nc(SC(C)C)nc(NNC(N)=O)c2C#N)cc1` .
Result: 81.2

Query: Name the recorded growth for `CC(C)(C)CC(C)(C)Nc1c(-c2ccc(C(F)(F)F)cc2)nc2cnccn12` .
Result: 103

Query: Name the recorded growth for COc1cc(OC)cc(C2C3=C(COC3=O)Nc3cc(OC)ccc32)c1 (centres undefined) .
Result: 71.6

Query: Name the recorded growth for CC(C)Cc1ccc(C(C)C(=O)NCc2c[nH]c3ccc(Cl)cc23)cc1 (centres undefined) .
Result: 98.8

Query: Name the recorded growth for `c1cnc2nc3c(cc2c1)oc1ccccc13` .
Result: 109

Query: Name the recorded growth for `COc1ccc(Cn2nc3c(c2-c2cc(OC)c(OC)c(OC)c2)-c2oncc2CC3)cc1` .
Result: 93.7

Query: Name the recorded growth for `CCCCCCOc1ccc(C(=N)N(CCCC)CCCC)c2ccccc12` .
Result: -82.7

====

system: SF-268 CNS; assay: NCI-60 one-dose screen, 48 h; details: 10 µM unless noted
The panel holds about 83,000 compounds, 20% with a hit somewhere; the sample as a whole holds those more often. Activity calls are given as the source filed them. How the source made its calls: active means growth percent below 10; inactive means the rest.
Log the outcome using a class from t (active), f (inactive)

Previously resolved entries follow.
>  <compound>
O=C(/C=C\c1ccc(OCCCCCC[P+](c2ccccc2)(c2ccccc2)c2ccccc2)cc1)c1ccc2c(c1)OCCO2

>  <class name>
t

$$$$
>  <compound>
Clc1ccc(N2N=C(c3cccc(Nc4ccncc4)c3)CC2c2ccc3c(c2)OCO3)cc1 (stereo not drawn)

>  <class name>
f

$$$$
>  <compound>
CN(C)c1ccc(-c2c(C#N)c(N)n3nc(N)c(C#N)c3c2C#N)cc1

>  <class name>
f

$$$$
>  <compound>
COc1ccc(-c2nc(N/N=C/c3c[nH]c4ccccc34)nc(N3CCOCC3)c2C#N)cc1

>  <class name>
f

$$$$
>  <compound>
CCCCCCCCCCCCCCCC(=O)OC[C@@]1(O)C[C@@]23CC[C@@H]4C(C)(C)CCC[C@@]4(C)[C@@H]2CC[C@H]1C3

>  <class name>
f

$$$$

Query: Name the outcome recorded for `COc1cc2nnn3c4ncccc4c(N=O)c3c2cc1OC` in the assay.
Result: f

Query: Name the outcome recorded for `CN1CCN(C(=O)[C@]2(C)CC[C@]3(C)CC[C@]4(C)C(=CC(=O)[C@@H]5[C@@]6(C)CCC(=O)NC(C)(C)[C@@H]6CC[C@]54C)[C@@H]3C2)CC1` in the assay.
Result: f

Query: Name the outcome recorded for `Clc1nc(Cl)c2ncn(CC3(Cn4cnc5c(Cl)nc(Cl)nc54)COC3)c2n1` in the assay.
Result: t

====

# key: entry, value: growth
tested on: OVCAR-5 ovarian; test: NCI-60 one-dose screen, 48 h (100 = growth as untreated, 0 = no growth, -100 = all killed); conditions: 10 µM unless noted
About 83,000 compounds went through this panel and 20% of them were active in at least one assay; those are over-represented in the sample as a whole.
Numeric answer only, unit % assumed.

For orientation, consider the following solved cases.
>  <compound>
CC(C)C1C2=C(NCCN1C(=O)Cc1ccccc1)C(C)(C)N(Cc1ccccc1)C2=O (stereo not given)

>  <unit abbrev>
%

>  <growth>
102

$$$$
>  <compound>
CC(=O)Nc1ccc(C(=O)Nc2cc(-c3ccccc3)ccc2N)cc1

>  <unit abbrev>
%

>  <growth>
60.5

$$$$
>  <compound>
Cc1cccc(Oc2ccc(Nc3ncnc4ccc(NC(=O)CN(C)C)cc34)cc2Cl)c1

>  <unit abbrev>
%

>  <growth>
60.9

$$$$
>  <compound>
COc1ccc(-n2cc(-c3cc(OC)c(OC)c(OC)c3)n(C(C)=O)c2=O)cc1

>  <unit abbrev>
%

>  <growth>
78.3

$$$$

Query: Name the recorded growth for COc1cc(C2CC(c3cccc(Nc4ccncc4)c3)=NN2c2ccc(Cl)cc2)cc(OC)c1OC (stereo not given) .
Result: 72.1

====

Tested on: OVCAR-3 ovarian
Test: NCI-60 one-dose screen, 48 h (100 = growth as untreated, 0 = no growth, -100 = all killed)
Settings: 10 µM unless noted
Experimental: Growth inhibition of the OVCAR-3 human tumor cell line is measured as a screen for anti-cancer activity. Cells are grown in 96 well plates and exposed to the test compound for 48 hours. Compounds are tested at a single concentration, which is 10^-5 M for most compounds. The reported endpoint is percent growth (GI% or GIPRCNT), where numbers from 0 - 100% represent growth inhibition, and numbers from -100% - 0 represent cell death. For example, a value of 40 represents 60% growth inhibition. […]
This is part of a sample that, as a whole, favours compounds with a hit. Of some 83,000 tested, about 20% had one in any assay. Activity calls are given as the source filed them. The calls were made as follows: active = growth percent below 10; inactive = the rest.
parameter: growth

For orientation, consider the following solved cases.
>  <entry smiles>
CCNC(=O)c1[nH]cc(-c2ccc(OC)cc2)c1-c1cc(OC)c(OC)c(OC)c1

>  <measured value>
2.53% (active)

$$$$
>  <entry smiles>
C=C(C)[C@@H]1CC[C@]2(C(=O)N3CCN(C)CC3)CC[C@]3(C)[C@H](CC[C@@H]4[C@@]5(C)CCC(=O)C(C)(C)[C@@H]5CC[C@]43C)[C@@H]12

>  <measured value>
74% (inactive)

$$$$
>  <entry smiles>
O=C(CCN1CCCC1)Nc1ccc2c(NCc3ccc(F)cc3)c3ccccc3nc2c1

>  <measured value>
-46.5% (active)

$$$$

Please turn your attention to the following entry.
Query: Name the recorded growth for `COc1cc2nc(-c3ccc(C(F)(F)F)cc3)cc(OCCCN3CCC(O)CC3)c2cc1OC` .
Result: 64% (inactive)

====

system: 786-0 renal; assay: NCI-60 one-dose screen, 48 h; conditions: 10 µM unless noted
About 83,000 compounds went through this panel and 20% of them were active in at least one assay; those are over-represented in the sample as a whole. Active and inactive are the calls of the source. Rule for the calls: active = growth percent below 10; inactive = the rest.
Log the outcome using a class from 1.0 for active, 0.0 for inactive

Previously resolved entries follow.
>  <compound>
Fc1ccc2nc3c(cc2c1)CSc1nnc(-c2ccc[nH]c2=S)n1N3

>  <class name>
0.0

$$$$
>  <compound>
COc1ccc(NC(=O)c2sc3nc(C)c(C(O)c4ccc(OC)cc4)cc3c2N)cc1 (stereo unspecified)

>  <class name>
0.0

$$$$
>  <compound>
COc1ccc(NS(=O)(=O)c2ccc(C)cc2)c([N+](=O)[O-])c1

>  <class name>
0.0

$$$$

Query: Name the outcome recorded for C/C(=C(/c1ccccc1)c1ccc(OCC(O)CN2CCOCC2)cc1)c1ccccc1 (stereo unspecified) in the assay.
Result: 0.0

Query: Name the outcome recorded for `O=S(=O)(NCCCNc1nccc(-c2c(-c3cccc(O)c3)nc3occn23)n1)c1ccc(F)cc1` in the assay.
Result: 0.0

====

system: ACHN renal; assay: NCI-60 one-dose screen, 48 h; conditions: 10 µM unless noted
This is part of a sample that, as a whole, favours compounds with a hit. Of some 83,000 tested, about 20% had one in any assay. Activity calls are given as the source filed them. The calls were made as follows: active = growth percent below 10; inactive = the rest.
Log the outcome using a class from active, inactive

Previously resolved entries follow.
>  <compound>
Clc1nc(Cl)c2ncn(CC3(Cn4cnc5c(Cl)nc(Cl)nc54)COC3)c2n1

>  <class name>
active

$$$$
>  <compound>
Cc1cc(C)n(Nc2nc3ccccc3[nH]c2=O)c(=O)c1C#N

>  <class name>
inactive

$$$$
>  <compound>
CCC(C)C(N)C(=O)NNc1n[nH]c(=S)n1N (stereo unspecified)

>  <class name>
inactive

$$$$

Query: Name the outcome recorded for O=C1OC(=O)C2C1CC=CC2c1ccccc1 (stereo unspecified) in the assay.
Result: inactive

Query: Name the outcome recorded for `N#Cc1c(NC(=O)c2cccc(Br)c2)sc2c1CCCC2` in the assay.
Result: inactive

Query: Name the outcome recorded for `O=C1CCCN1c1cccc2cccnc12` in the assay.
Result: inactive

Query: Name the outcome recorded for `COc1cc2c(cc1[N+](=O)[O-])-c1ccc([N+](=O)[O-])cc1/C2=N/NC(N)=S` in the assay.
Result: inactive

Query: Name the outcome recorded for `O=C1NC(=S)NC(=O)C1=Cc1cn(Cc2ccccn2)c2ccccc12` in the assay.
Result: inactive

Query: Name the outcome recorded for `O=C(O)CNC(=O)CN1C(=O)c2ccccc2C1=O` in the assay.
Result: inactive

Query: Name the outcome recorded for `O=C(Nc1sc2c(c1C(=O)O)CCCC2)c1cccc(C(F)(F)F)c1` in the assay.
Result: inactive

Query: Name the outcome recorded for `COc1ccc(/C=N/NC(=O)c2cccc3cc[nH]c23)cc1O` in the assay.
Result: inactive
